- Tested on: MRP2
- Construct: MRP2 and MRP3 were the main apically and basolaterally localized MRPs of the Caco-2 cells; endogenous in cells; host or cells: Caco-2 monolayers
- PROCEDURE_TEXT: Loganin transport across Caco-2 monolayers with MRP2 inhibitor indomethacin
- Format: in vitro ADME, human
- EXPERIMENTAL_SETUP: human, Caco-2, pH 7.4; with indomethacin 200 μM, loganin 20 μM, n = 3
READOUT_KIND: Papp B→A at 120 min, 20 μM

### Prompt // fetch Papp B→A at 120 min, 20 μM given entry COC(=O)C1=CO[C@@H](O[C@@H]2O[C@H](CO)[C@@H](O)[C@H](O)[C@H]2O)[C@@H]2[C@@H](C)[C@@H](O)C[C@H]12
### Response 4.4 ×10⁻⁶ cm/s
